- assayed_system: T1, recombinant biotinylated PD-L1 (rhPD-L1/Fc Chimera, R&D Systems 156-B7) (human, UniProt Q9NZQ7 19-238, biotinylated (sites not given))
- T1 construct: Bought Fc chimera; also called human PD-L1
- T1 sequence (Q9NZQ7 19-238, change not shown): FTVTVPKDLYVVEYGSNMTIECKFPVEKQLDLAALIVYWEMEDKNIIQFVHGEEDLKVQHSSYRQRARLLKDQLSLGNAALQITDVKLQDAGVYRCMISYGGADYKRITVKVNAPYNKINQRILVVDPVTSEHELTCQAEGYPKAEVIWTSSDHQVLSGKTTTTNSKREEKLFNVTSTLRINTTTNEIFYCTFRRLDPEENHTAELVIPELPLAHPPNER
- protocol_summary: ELISA, lysate on plate-bound antigen
// ELISA PD-L1 Fc (RSU) lookup, one value per entry

- binder: "ISOP121AR5P1A8 (designed binder, not shown: small tags and cut ends, FN3 domain; E. coli lysate in the ELISA) LPAPKNLVVSRVTEDSARLSWGLEWAYQFFDSFLIQYQESEKVGEAIVLTVPGSERSYDLTGLKPGTEYTVSIYGVYLRAIEFYSNPLSAIFTT"
  scale_unit: "RSU"
  ELISA PD-L1 Fc (RSU): 516000
- binder: "ISOP121ER5P1E7 (designed binder, not shown: small tags and cut ends, FN3 domain; E. coli lysate in the ELISA) LPAPKNLVVSRVTEDSARLSWTAPDAAFDSFTIGYTETPPRGEAIVLTVPGSERSYDLTGLKPGTKYYVSILGVKGGLGSWPLSAIFTT"
  scale_unit: "RSU"
  ELISA PD-L1 Fc (RSU): 251000
- binder: "ISOP121FR5P1G1 (designed binder, not shown: small tags and cut ends, FN3 domain; E. coli lysate in the ELISA) LPAPKNLVVSRVTEDSARLSWTAPDAAFDSFWIHYTEAPVHGEAIVLTVPGSERSYDLTGLKPGTEYTVVIWGVKGGTWSSPLSAIFTT"
  scale_unit: "RSU"
  ELISA PD-L1 Fc (RSU): 10000
- binder: "ISOP194BR9P1D1 (designed binder, not shown: small tags and cut ends, FN3 domain; E. coli lysate in the ELISA) LPAPKNLVVSRVTEDSARLSWEHSLLNDQWFDSFLIQYQESEKVGEAIVLTVPGSERSYDLTGLKPGTEYTVSIYGVYQRGRALWYSNPLSAIFTT"
  scale_unit: "RSU"
  ELISA PD-L1 Fc (RSU): "2.15e+06"
- binder: "ISOP121BR5P1F10 (designed binder, not shown: small tags and cut ends, FN3 domain; E. coli lysate in the ELISA) LPAPKNLVVSRVTEDSARLSWPLNLEYFDSFLIQYQESEKVGEAIVLTVPGSERSYDLTGLKPGTEYTVSIYGVYGRYGGPFVSNPLSAIFTT"
  scale_unit: "RSU"
  ELISA PD-L1 Fc (RSU): "1.42e+06"
- binder: "ISOP121AR5P1C5 (designed binder, not shown: small tags and cut ends, FN3 domain; E. coli lysate in the ELISA) LPAPKNLVVSRVTEDSARLSWKRSDDEWFDSFLIQYQESEKVGEAIILTVPGSERSYDLTGLKPGTEYTVSIYGVYQRAALWFSNPLSAIFTT"
  scale_unit: "RSU"
  ELISA PD-L1 Fc (RSU): 732000
- binder: "ISOP121BR5P1F7 (designed binder, not shown: small tags and cut ends, FN3 domain; E. coli lysate in the ELISA) LPAPKNLVVSRVTEDSARLSWHDATWQYFDSFLIQYQESEKVGEAIVLTVPGSERSYDLTGLKPGTEYTVSIYGVFHRKHIDFVSNPLSAIFTT"
  scale_unit: "RSU"
  ELISA PD-L1 Fc (RSU): 12900
- binder: "ISOP194BR9P1G9 (designed binder, not shown: small tags and cut ends, FN3 domain; E. coli lysate in the ELISA) LPAPKNLVVSRVTEDSARLSWTTAFHNEYFDSFLIQYQESEKVGEAIVLTVPGSERSYDLTGLKPGTEYTVSIYGVYIRVQVLWFSNPLSAIFTT"
  scale_unit: "RSU"
  ELISA PD-L1 Fc (RSU): "1.44e+07"
- binder: "ISOP121BR5P1A6 (designed binder, not shown: small tags and cut ends, FN3 domain; E. coli lysate in the ELISA) LPAPKNLVVSRVTEDSARLSWASWLVAFFDSFLIQYQESEKVGEAIVLTVPGSERSYDLTGLKPGTEYTVSIYGVYQRHASAFVSNPLSAIFTT"
  scale_unit: "RSU"
  ELISA PD-L1 Fc (RSU): 11000
- binder: "ISOP121GR5P1F6 (designed binder, not shown: small tags and cut ends, FN3 domain; E. coli lysate in the ELISA) LPAPKNLVVSRVTEDSARLSWTAPDAAFDSFDIRYHEYTWPGEAIVLLVPGSERSYDLTGLKPGTEYGVYINGVKGGFRSKPLFAWFTTGG"
  scale_unit: "RSU"
  ELISA PD-L1 Fc (RSU): 32100
- binder: "ISOP194HR9P1B2 (designed binder, not shown: small tags and cut ends, FN3 domain; E. coli lysate in the ELISA) LPAPKNLVVSRVTEDSARLSWTAPDAAFDSFSILYGELIGDGEAIVLTVPGSERSYDLTGLKPGSEYTVYIFGVKGGRYSRPLSAIFTT"
  scale_unit: "RSU"
  ELISA PD-L1 Fc (RSU): "5.66e+06"
- binder: "ISOP121BR5P1E7 (designed binder, not shown: small tags and cut ends, FN3 domain; E. coli lysate in the ELISA) LPAPKNLVVSRVTEDSARLSWRKQEQYFDSFLIQYQESEKVGEAIVLTVPGSERSYDLTGLKPGTEYTVSIYGVKKWPSTTTTSNPLSAIFTT"
  scale_unit: "RSU"
  ELISA PD-L1 Fc (RSU): 412000
- binder: "ISOP121GR5P1G11 (designed binder, not shown: small tags and cut ends, FN3 domain; E. coli lysate in the ELISA) LPAPKNLVVSRVTEDSARLSWTAPDAAFDSFQINYHEYGQNGEAIQLIVPGSERSYDLTGLKPGTEYGVWIWGVKGGIRSKPLWAFFTT"
  scale_unit: "RSU"
  ELISA PD-L1 Fc (RSU): 240000
- binder: "ISOP121BR5P1B5 (designed binder, not shown: small tags and cut ends, FN3 domain; E. coli lysate in the ELISA) LPAPKNLVVSRVTEDSARLSWRKQEQYFDSFLIQYQESEKVGEAIVLTVPGSERSYDLTGLKPGTEYTVSIYGVYQRGYHNWFSNPLSAIFTT"
  scale_unit: "RSU"
  ELISA PD-L1 Fc (RSU): "1.48e+06"
- binder: "ISOP194GR9P1F6 (designed binder, not shown: small tags and cut ends, FN3 domain; E. coli lysate in the ELISA) LPAPKNLVVSRVTEDSARLSWTAPDAAFDSFWIDYWERLSEGEAIALRVPGSERSYDLTGLKPGTEYYVWIVGVKGGKFSQPLRAWFTT"
  scale_unit: "RSU"
  ELISA PD-L1 Fc (RSU): 319000
- binder: "ISOP121AR5P1D11 (designed binder, not shown: small tags and cut ends, FN3 domain; E. coli lysate in the ELISA) LPAPKNLVVSRVTEDSARLSWEWLEHFDSFLIQYQESEKVGEAIVLTVPGSERSYDLTGLKPGTEYTVSIYGVYQRKVEFHSNPLSAIFTT"
  scale_unit: "RSU"
  ELISA PD-L1 Fc (RSU): 393000
- binder: "ISOP194AR9P1E9 (designed binder, not shown: small tags and cut ends, FN3 domain; E. coli lysate in the ELISA) LPAPKNLVVSRVTEDSARLSWEWLEHFDSFLIQYQESEKVGEAIVLTVPGSERSYDLTGLKPGTEYTVSIYGVYQRKVNFYSNPLSAIFTT"
  scale_unit: "RSU"
  ELISA PD-L1 Fc (RSU): "1.97e+07"

Values compiled from patent US20180162928A1.
